- MEASURED_TARGET: T1, Sgf29 D266N variant, residues 115-293 (human, UniProt Q96ES7 115-293, D266N)
- T1 construct: source: E. coli Rosetta BL21 DE3 PlysS, purified (Ni-NTA, TEV cleavage, SEC Superdex 75)
- T1 sequence (looked up): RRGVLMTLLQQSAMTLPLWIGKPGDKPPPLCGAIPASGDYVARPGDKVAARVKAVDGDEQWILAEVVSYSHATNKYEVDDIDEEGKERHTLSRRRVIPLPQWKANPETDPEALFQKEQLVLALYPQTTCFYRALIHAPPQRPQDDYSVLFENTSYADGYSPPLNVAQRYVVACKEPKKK
- PROTOCOL: ITC; peptide (generally 1.2 mM) titrated to protein (100 uM); for variants of low affinity 2.4 mM peptide to 200 uM protein; 25 mM TRIS pH 8.0, 50 mM NaCl, 1 mM DTT; one-site model
- CONDITIONS: both partners purified
No end group written: not given here. Me3 = trimethyl (on lysine, trimethyllysine)
QUANTITY: Kd (µM)
Answer format: numeric, µM implied, no suffix.

# input Endpoint output: Kd of ARTK(Me3)QTARKS-OH (histone H3 N-terminal tail, 10-mer, K4 trimethylated; also called native 10-mer peptide; source: synthetic peptide (manual Fmoc solid-phase synthesis, preparative HPLC)) [10-mer histone 3 peptide H3K4me3 (ARTKme3QTARKS)] . Value?
# output 25

Origin of the recorded values: paper PMC4589357
